test system: HCC-2998 colon; experiment: NCI-60 one-dose screen, 48 h (100 = growth as untreated, 0 = no growth, -100 = all killed); conditions: 10 µM unless noted
Compounds without any hit were thinned out: in the full panel of roughly 83,000, 20% have a hit.
Threshold check on growth: at or above 90% gives yes (1), strictly below gives no (0).

## Input Check if growth >= 90% (inclusive). Item: `O=c1cc(-c2ccc3c(c2)OCCO3)oc2cc(Cl)ccc12`
## Output no (0)

## Input Check if growth >= 90% (inclusive). Item: `O=C1C=CC(=O)N1c1cccc(N2C(=O)C=CC2=O)c1`
## Output yes (1)

## Input Check if growth >= 90% (inclusive). Item: `O=C(C(=O)c1cccnc1)c1cccnc1`
## Output yes (1)

## Input Check if growth >= 90% (inclusive). Item: O=C(NCC(c1ccsc1)N1CCCCCC1)c1ccc(C(F)(F)F)cc1 (centres undefined)
## Output yes (1)

## Input Check if growth >= 90% (inclusive). Item: COc1ccc(C2CC(c3ccc(Nc4ccnc5cc(Cl)ccc45)cc3)=NN2c2ccccc2)cc1 (centres undefined)
## Output yes (1)

## Input Check if growth >= 90% (inclusive). Item: N#Cc1c(NN)n(C2OC(CO)C(O)C2O)c2ncnc(N)c12 (centres undefined)
## Output no (0)

## Input Check if growth >= 90% (inclusive). Item: `COc1ccc2[nH]c(O)c(/C=c3/ccc4c(c3)N=C(c3ccc(C(F)(F)F)cc3)N=4)c2c1`
## Output yes (1)
